Every entry's value here was drawn from paper PMC8119466.

- TARGET ENTITY: recombinant PRL-3 (Homo sapiens, UniProt O75365)
- Construct: 6xHis (N, cleaved yes); made in house; host or cells: E. coli One Shot BL21 Star
- Sequence (O75365 whole entry): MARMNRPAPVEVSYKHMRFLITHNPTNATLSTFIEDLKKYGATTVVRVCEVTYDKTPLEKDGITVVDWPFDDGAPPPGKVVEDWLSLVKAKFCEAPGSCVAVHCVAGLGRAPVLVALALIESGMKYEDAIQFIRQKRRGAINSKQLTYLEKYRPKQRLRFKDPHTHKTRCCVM
- ASSAY PROTOCOL: In vitro phosphatase assay (DiFMUP hydrolysis), PRL-3
- Format: biochemical
- TEST SETTINGS: FDA-approved drug screen; compared to DMSO
Counter-ions that a name gives are not always drawn.
Lab note: compare % Phosphatase Activity (compared to DMSO) PRL-3 with 80%, writing class 1 if less and class 0 if equal or more.

Illustrative cases are given below, each with its answer.
1. NC(=O)CCC(N)C(=O)O (stereo in doubt) [D-glutamine] ... class 0
2. NC(=O)CC[C@H](N)C(=O)O [L-Glutamine] ... class 0
3. Oc1ccc(/C=C/c2cc(O)cc(O)c2)cc1 [Resveratrol] ... class 0

Lab note: % Phosphatase Activity (compared to DMSO) PRL-3 threshold 80%. Does this compound come in strictly under it? CCC(NC(C)C)C(O)c1ccc(O)c(O)c1 (centres unmarked) [Isoetharine Mesylate]
class 0

Lab note: % Phosphatase Activity (compared to DMSO) PRL-3 threshold 80%. Does this compound come in strictly under it? CN(C)CCc1c[nH]c2ccc(CS(=O)(=O)N3CCCC3)cc12.O=C(O)CC(O)C(=O)O [Almotriptan Malate]
class 1

Lab note: % Phosphatase Activity (compared to DMSO) PRL-3 threshold 80%. Does this compound come in strictly under it? CC(C)NCC(O)COc1ccc(COCCOC(C)C)cc1 (centres unmarked) [Bisoprolol fumarate]
class 0

Lab note: % Phosphatase Activity (compared to DMSO) PRL-3 threshold 80%. Does this compound come in strictly under it? Cc1cccc(CN2CCN(C(c3ccccc3)c3ccc(Cl)cc3)CC2)c1.Cl.Cl (centres unmarked) [Meclizine 2HCl]
class 0

Lab note: % Phosphatase Activity (compared to DMSO) PRL-3 threshold 80%. Does this compound come in strictly under it? Nc1nc(CC(=O)Nc2ccc(CCNC[C@H](O)c3ccccc3)cc2)cs1 [Mirabegron]
class 0

Lab note: % Phosphatase Activity (compared to DMSO) PRL-3 threshold 80%. Does this compound come in strictly under it? CNC(=O)c1ccc(N2C(=S)N(c3ccc(C#N)c(C(F)(F)F)c3)C(=O)C2(C)C)cc1F [Enzalutamide (MDV3100)]
class 1

Lab note: % Phosphatase Activity (compared to DMSO) PRL-3 threshold 80%. Does this compound come in strictly under it? CCC/N=C1\S/C(=C\c2ccc(OC[C@H](O)CO)c(Cl)c2)C(=O)N1c1ccccc1C [Ponesimod]
class 0

Lab note: % Phosphatase Activity (compared to DMSO) PRL-3 threshold 80%. Does this compound come in strictly under it? CC(C)(C)c1cc(C(C)(C)C)c(NC(=O)c2c[nH]c3ccccc3c2=O)cc1O [Ivacaftor (VX-770)]
class 1

Lab note: % Phosphatase Activity (compared to DMSO) PRL-3 threshold 80%. Does this compound come in strictly under it? O=C(C[S+]([O-])Cc1ccco1)NC/C=C\COc1cc(CN2CCCCC2)ccn1 (centres unmarked) [Lafutidine]
class 0

Lab note: % Phosphatase Activity (compared to DMSO) PRL-3 threshold 80%. Does this compound come in strictly under it? CCOc1ccccc1OC(c1ccccc1)C1CNCCO1.CS(=O)(=O)O (centres unmarked) [Reboxetine mesylate]
class 0

Lab note: % Phosphatase Activity (compared to DMSO) PRL-3 threshold 80%. Does this compound come in strictly under it? CC(C)Oc1ccc(-c2nc(-c3cccc4c3CC[C@@H]4NCCO)no2)cc1C#N [Ozanimod (RPC1063)]
class 0

Lab note: % Phosphatase Activity (compared to DMSO) PRL-3 threshold 80%. Does this compound come in strictly under it? CCCCC1=NC2(CCCC2)C(=O)N1Cc1ccc(-c2ccccc2-c2nnn[nH]2)cc1 [Irbesartan]
class 0

Lab note: % Phosphatase Activity (compared to DMSO) PRL-3 threshold 80%. Does this compound come in strictly under it? CC(=O)NO [Acetohydroxamic acid]
class 1

Lab note: % Phosphatase Activity (compared to DMSO) PRL-3 threshold 80%. Does this compound come in strictly under it? O=C(O)CCC(=O)c1ccc(-c2ccccc2)cc1 [Fenbufen]
class 0

Lab note: % Phosphatase Activity (compared to DMSO) PRL-3 threshold 80%. Does this compound come in strictly under it? CCCc1ncc(C[n+]2ccccc2C)c(N)n1.Cl.[Cl-] [Amprolium HCl]
class 0

Lab note: % Phosphatase Activity (compared to DMSO) PRL-3 threshold 80%. Does this compound come in strictly under it? Cc1nc(C(=O)NCC(=O)O)c(O)c2ccc(Oc3ccccc3)cc12 [FG-4592]
class 0

Lab note: % Phosphatase Activity (compared to DMSO) PRL-3 threshold 80%. Does this compound come in strictly under it? Cc1[nH]c2ccccc2c1CCNCc1ccc(/C=C/C(=O)NO)cc1 [Panobinostat (LBH589)]
class 0
